The measurements presented in this section are drawn from patent EP4722219A1.

system: MCF-7 cells; test: Inhibition of cell proliferation in MCF-7 cells (CCK-8); type: cell-based; settings: MCF-7 cell proliferation, 6 days treatment
measuredProperty: IC50 (nM)
Write down the numeric answer in nM and omit the unit.

# example entries with known answers
COc1c(C(=O)N[C@H]2CCC(=O)NC2=O)ccc2c1OC[C@H]1CN(CC3CCC(OC4CCN(c5ccc([C@@H]6c7ccc(O)cc7CC[C@@H]6c6ccccc6)cc5)CC4)CC3)CCN21 (some centres unmarked) | 7390
O=C1CC[C@H](NC(=O)c2ccc3c(c2)OCC[C@H]2CN(CC4CCC(OC5CCN(c6ccc([C@@H]7c8ccc(O)cc8CC[C@@H]7c7ccccc7)cc6)CC5)CC4)CCN32)C(=O)N1 (some centres unmarked) [ER-P-44] | 805
O=C1CC[C@H](NC(=O)c2ccc3c(c2)OCC[C@H]2CN(CC4CCC(OC5CCN(c6ccc([C@@H]7c8ccc(O)cc8CC[C@@H]7c7ccccc7)cc6)CC5)CC4)CCN32)C(=O)N1 (some centres unmarked) [ER-P-45] | 1630
O=C1CCC(N2Cc3c(ccc4c3OCC43CCC4(CC3)CN(CC3CCC(OC5CCN(c6ccc([C@@H]7c8ccc(O)cc8CC[C@@H]7c7ccccc7)cc6)CC5)CC3)C4)C2=O)C(=O)N1 (some centres unmarked) | 737
CN(c1ccc2c(c1)COC[C@H]1CN(CC3CCC(OC4CCN(c5ccc([C@@H]6c7ccc(O)cc7CC[C@@H]6c6ccccc6)cc5)CC4)CC3)CCN21)C1CCC(=O)NC1=O (some centres unmarked) | 1310

Param item: O=C1CC[C@H](NC(=O)c2ccc3c(c2F)OCC32CCN(CC3CCC(OC4CCN(c5ccc([C@@H]6c7ccc(O)cc7CC[C@@H]6c6ccccc6)cc5)CC4)CC3)CC2)C(=O)N1 (some centres unmarked) ; param system: MCF-7 cells; output IC50: 4390

Param item: Cn1c(=O)n(C2CCC(=O)NC2=O)c2ccc3c(c21)OCC31CCN(C2CC3(CCN(c4ccc([C@@H]5c6ccc(O)cc6CC[C@@H]5c5ccccc5)cc4)CC3)C2)CC1 (some centres unmarked) ; param system: MCF-7 cells; output IC50: 4560

Param item: O=C1CCC(Nc2ccc3c(c2)COC[C@H]2CN(CC4CCC(OC5CCN(c6ccc([C@@H]7c8ccc(O)cc8CC[C@@H]7c7ccccc7)cc6)CC5)CC4)CCN32)C(=O)N1 (single isomer, unassigned) [ER-P-51] ; param system: MCF-7 cells; output IC50: 1260

Param item: O=C1CC[C@H](NC(=O)c2cc3c(cc2F)OCC32CCN(CC3CCC(OC4CCN(c5ccc([C@@H]6c7ccc(O)cc7CC[C@@H]6c6ccccc6)cc5)CC4)CC3)CC2)C(=O)N1 (some centres unmarked) ; param system: MCF-7 cells; output IC50: 4330

Param item: O=C1CCC(N2Cc3c(ccc4c3OCC43CCC4(CCN(C[C@H]5CC[C@@H](OC6CCN(c7ccc([C@@H]8c9ccc(O)cc9CC[C@@H]8c8ccccc8)cc7)CC6)CC5)CC4)CC3)C2=O)C(=O)N1 (some centres unmarked) ; param system: MCF-7 cells; output IC50: 63.4

Param item: COc1cc2c(cc1C(=O)N[C@H]1CCC(=O)NC1=O)N(C)C[C@H]1CN(CC3CCC(OC4CCN(c5ccc([C@@H]6c7ccc(O)cc7CC[C@@H]6c6ccccc6)cc5)CC4)CC3)CCN21 (some centres unmarked) ; param system: MCF-7 cells; output IC50: 3730
